This collection of values is drawn from patent US20250333501A1.

Biological target: T1, CLDN6 endogenously expressed by human cancer cell lines (ARK2, OVCA429) (human, UniProt P56747 1-220)
T1 construct: Untagged endogenous protein; also called Endogenous CLDN6+
T1 sequence: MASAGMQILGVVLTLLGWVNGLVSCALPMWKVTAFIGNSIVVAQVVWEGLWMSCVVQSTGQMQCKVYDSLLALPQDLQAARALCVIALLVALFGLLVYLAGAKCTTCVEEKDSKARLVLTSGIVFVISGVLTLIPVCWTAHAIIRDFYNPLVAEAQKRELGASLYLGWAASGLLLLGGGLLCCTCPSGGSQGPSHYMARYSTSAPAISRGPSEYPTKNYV
Assay: FACS, 0.3 µg Ab, ARK2 cells
Procedure: FACS assays were also carried out to determine relative antigen binding strengths of the humanized antibodies (at either 1.5 μg or 0.3 μg) for binding to CLDN6 as expressed by the indicated cancer cell lines. 2nd Ab only was used as a negative control.
This section presents binders with their documented FACS fluorescence values.
Please give the numeric answer without any surrounding text.

Previously resolved entries follow.
{"binder": "AB4-3 (antibody, V domains shown, also called Humanized AB 4-3) VH: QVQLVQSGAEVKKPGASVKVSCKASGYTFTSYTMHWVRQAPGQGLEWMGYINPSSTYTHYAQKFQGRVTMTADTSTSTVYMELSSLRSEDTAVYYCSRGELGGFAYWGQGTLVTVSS VL: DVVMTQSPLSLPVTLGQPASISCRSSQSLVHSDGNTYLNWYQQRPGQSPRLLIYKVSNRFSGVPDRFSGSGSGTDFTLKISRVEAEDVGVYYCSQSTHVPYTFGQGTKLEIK", "result": 1190}
{"binder": "AB4-7 (antibody, V domains shown, also called Humanized AB 4-7) VH: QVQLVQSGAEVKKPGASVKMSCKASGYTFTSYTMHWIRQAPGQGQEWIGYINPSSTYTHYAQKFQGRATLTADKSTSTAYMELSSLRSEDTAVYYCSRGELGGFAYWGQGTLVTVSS VL: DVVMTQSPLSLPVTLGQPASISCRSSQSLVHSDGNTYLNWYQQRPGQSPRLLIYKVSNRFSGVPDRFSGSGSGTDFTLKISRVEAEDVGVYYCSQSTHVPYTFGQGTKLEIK", "result": 2770}
{"binder": "AB3-4 (antibody, V domains shown, also called Humanized AB 3-4) VH: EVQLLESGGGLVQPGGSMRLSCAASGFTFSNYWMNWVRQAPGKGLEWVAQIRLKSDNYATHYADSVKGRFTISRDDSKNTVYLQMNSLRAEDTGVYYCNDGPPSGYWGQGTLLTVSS VL: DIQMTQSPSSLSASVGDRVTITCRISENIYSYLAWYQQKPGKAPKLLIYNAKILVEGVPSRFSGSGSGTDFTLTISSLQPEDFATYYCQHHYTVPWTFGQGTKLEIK", "result": 1320}
{"binder": "AB9-chim (antibody, V domains shown, 'chim' is the pre-humanized form (parental variable regions); also called pre-humanized (chimeric) form of AB9) VH: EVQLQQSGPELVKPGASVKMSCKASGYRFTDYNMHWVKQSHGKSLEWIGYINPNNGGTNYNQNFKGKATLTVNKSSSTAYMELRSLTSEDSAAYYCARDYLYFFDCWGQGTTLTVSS VL: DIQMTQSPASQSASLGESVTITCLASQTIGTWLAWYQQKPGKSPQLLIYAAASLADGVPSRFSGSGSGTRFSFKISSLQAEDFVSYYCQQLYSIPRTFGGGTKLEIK", "result": 3510}

Ask: Look at this binder and give its reported FACS fluorescence. AB4-10 (antibody, V domains shown, Humanized; also called Humanized AB 4-10) VH: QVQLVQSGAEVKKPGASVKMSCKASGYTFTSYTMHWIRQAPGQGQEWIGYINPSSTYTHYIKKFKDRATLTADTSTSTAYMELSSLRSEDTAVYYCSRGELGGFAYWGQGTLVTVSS VL: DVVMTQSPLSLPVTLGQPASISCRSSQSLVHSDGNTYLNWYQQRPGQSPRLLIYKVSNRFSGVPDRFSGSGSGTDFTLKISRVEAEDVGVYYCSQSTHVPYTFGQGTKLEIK
Result: 7210
